system: non-caged complement (5′ CGAACCTGGTCGAAATCAG 3′); assay: Melting temperatures of caged and non-caged PCR primers with complementary DNA; type: binding; settings: after 8 minutes irradiation at 365 nm
[cageT] = thymidine carrying a photolabile caging group (caged thymidine), removed by 365 nm UV light
I'd appreciate it if you could supply Mp/° C. +UV values for the items below.
Numbers only, in °C.

{"substance": "P2: primer 5′ CTGATTTCGACCAGGTTCG 3′ with a single caged thymidine close to the 5′ terminus, SEQ ID NO 4 (DNA, [cageT] at 2, backbone not given here)", "readoutUnit": "°C", "valueObserved": 64.1}
{"substance": "P1: non-caged 19 nucleotide PCR primer 5′ CTGATTTCGACCAGGTTCG 3′, SEQ ID NO 3 (DNA, backbone not given here) [reference compound]", "readoutUnit": "°C", "valueObserved": 65.0}

// switching to the query substance
INPUT: Look at this substance and give its reported Mp/° C. +UV. P6: primer with a cluster of three caged thymidines, SEQ ID NO 8 (DNA CTGATTTCGACCAGGTTCG; DNA, [cageT] at 5, 6, 7, backbone not given here)
OUTPUT: 64.5
